- assayMethodText: qHTS for identification of novel therapeutic agents for treatment of microphthalmiaassociated transcription factor (MiT) renal cell carcinoma (RCC) (AID 1963991);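 also: curves scaled with 100% = DMSO viability and 0% = empty wells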
- experimentalParameters: TFE3-RCC UOK109 viability, CellTiter-Glo, 48 h; measured here: UOK109 Z-AUC; stronger effect = lower value
Results filed as inconclusive are left out.
Attribute: z-score
Give the figure only, with no unit attached.

Observe how each entry below is paired with its result.
C[C@]12C=CC(=O)N[C@@H]1CC[C@H]1[C@H]3CC[C@@H](C(=O)Nc4cc(C(F)(F)F)ccc4C(F)(F)F)[C@@]3(C)CC[C@@H]12    0.94
C=CC(=O)Nc1ccc2ncnc(Nc3ccc(OCc4cccc(F)c4)c(Cl)c3)c2c1    -2.47

Entry under review: CN1[C@H]2CC(OC(=O)[C@@H](CO)c3ccccc3)C[C@H]1[C@H]1O[C@H]12 (stereo not given in full) . Reported z-score?
0.573

# input compound: N#Cc1c(NC(=O)c2cccc3ccccc23)sc2c1CCCC2 ; wanted: its z-score
-1.37

What value of z-score has been recorded for this entry: COC(=O)[C@@H]1CC2=CC(=O)CC[C@]2(C)[C@@]23O[C@@H]2C[C@@]2(C)[C@H](CC[C@@]24CCC(=O)O4)[C@@H]13
0.222

Requested field: z-score. Item: CC(=O)N[C@@H]1[C@H](O[C@@H]2c3ccc(c(Cl)c3)Oc3cc4cc(c3O[C@H]3O[C@H](CO)[C@@H](O)[C@H](O)[C@H]3NC(=O)CCCCCCCC(C)C)Oc3ccc(cc3Cl)C[C@H]3NC(=O)[C@H](N)c5ccc(O)c(c5)Oc5cc(O)cc(c5)[C@H](NC3=O)C(=O)N[C@H]4C(=O)N[C@H]3C(=O)N[C@@H]2C(=O)N[C@@H](C(=O)O)c2cc(O)cc(O[C@H]4O[C@H](CO)[C@@H](O)[C@H](O)[C@H]4O)c2-c2cc3ccc2O)O[C@H](CO)[C@@H](O)[C@@H]1O
0.106

Would you kindly share the measured z-score for O=C(O)C(=O)Nc1cccc(C2=NN=N[N]2)c1 ?
0.225

Reported z-score, compound NC(=O)c1cccc(-c2cccc(OC(=O)NC3CCCCC3)c2)c1 : ____
0.801

What z-score value was documented for this compound, C=C(C)[C@@H]1CC[C@]2(C(=O)O)CC[C@]3(C)[C@H](CC[C@@H]4[C@@]5(C)CC[C@H](O)C(C)(C)[C@@H]5CC[C@]43C)[C@@H]12 ?
0.38

Form field: reported z-score of O=C(CN1C(=O)C2(CCCC2)NC[C@H]1c1cc(F)cc(F)c1)Nc1ccc2c(c1)C[C@@]1(C2)C(=O)Nc2ncccc21
1.1

// query z-score value for entry C=CC(=O)Nc1cccc(Nc2nc(NC3CCC(N(C)C)CC3)nc3c2ncn3C(C)C)c1 (stereo not given)
-3.03

Item Nc1ccn(C[C@@H](CO)OCP(=O)(O)O)c(=O)n1 has what recorded z-score?
1.6

Dear colleague, I am looking for the recorded z-score of the following compound: C=C1CCC2[C@](C)(CO)C(O)CC[C@]2(C)C1CC=C1C(=O)OCC1O (stereo not given in full)
0.432

Which z-score value belongs to COc1cc([C@@H]2c3cc4c(cc3[C@H](O)[C@H]3COC(=O)[C@@H]23)OCO4)cc(OC)c1OC ?
-1.41

So what's the measured z-score for this one? O=C(c1ccc(F)cc1)N1CCC[C@H](c2nc(-c3ccc(F)cc3)no2)C1
1.39
